All figures here come from patent US20100009970A1.

Tested on: Huh7 cells expressing a subgenomic RNA replicon of Con1 (genotype 1b) sequence origin
test method notes: microbe, parasite or virus in culture
condition notes: Hepatitis C virus, Huh-7
observed property: IC90 (µM)
The figure you give is taken to be in µM; do not add the unit.

Some solved entries appear below for comparison.
{"columns": ["mol smiles", "target or system", "recorded measurement"],
 "data": [
  ["CSc1ccc(Oc2ccc(S(N)(=O)=O)cc2CN(C)CCO)cc1C", "Huh7 cells expressing a subgenomic RNA replicon of Con1 (genotype 1b) sequence origin", 20.1],
  ["CN(C)[C@H]1CC[C@@H](c2ccc(Cl)c(Cl)c2)c2ccccc21", "Huh7 cells expressing a subgenomic RNA replicon of Con1 (genotype 1b) sequence origin", 18.1]
]}

Kindly review the next compound as well.
Query: Look up IC90 of `CSc1ccc(Oc2ccc(S(N)(=O)=O)cc2CN(C)CCCN(C)C)cc1C` and report it.
Reply: 7.38
